system: Pseudomonas aerguinosa (ATCC 27853); test: End-point absorbance assay of bacterial growth in 384 well microtiter plate, single amines with KATHON 886MW biocide; format: cell-based; conditions: amine 400 ppm; KATHON 886MW loading 12 ppm; 48 hours growth; pH 8.5
measurement.name: End-point absorbance (660 nm)
Kindly provide the number alone.

{"compound": "C1CCC(NC2CCCCC2)CC1 [DCHA, dicyclohexylamine, reference compound]", "End-point absorbance (660 nm)": 0.14}
{"compound": "CCCCCCCCN(CCO)CCO", "End-point absorbance (660 nm)": 0.08}

Okay, next one:
Give the measured End-point absorbance (660 nm) of CCCCCCCCNCCO .
0
